- study_target: Trypsin (Homo sapiens, UniProt P07477)
- procedure_text: Biochemical inhibition assay, fluorogenic substrate FSR-AMC
- recorded_conditions: read-out: Trypsin IC50; Trypsin 0.88 ng/mL; 30 min incubation with inhibitor; FSR-AMC 20 µM; Tris pH 7.5
pIC50: −log10 of the molar value.
The molecules listed here are annotated with their pIC50.

Here's what some known entries look like.
[
  {
    "smiles_structure": "Cc1ccccc1CC(=O)OCC(=O)Nc1c(C)nn(-c2ccccc2)c1C",
    "study_target": "Trypsin (Homo sapiens, UniProt P07477)",
    "pIC50": "< 3.70"
  },
  {
    "smiles_structure": "Cc1nn(-c2ccc(NCCCCO)cc2)c(C)c1NC(=O)COC(=O)Cn1c(C)cc2ccccc21",
    "study_target": "Trypsin (Homo sapiens, UniProt P07477)",
    "pIC50": 4.67
  },
  {
    "smiles_structure": "COc1cccc(NC(=O)COC(=O)Cc2c(C)[nH]c3ccccc23)c1",
    "study_target": "Trypsin (Homo sapiens, UniProt P07477)",
    "pIC50": "< 3.70"
  },
  {
    "smiles_structure": "Cc1nn(-c2ccccc2)c(C)c1NC(=O)COC(=O)Cc1cccc(N)c1",
    "study_target": "Trypsin (Homo sapiens, UniProt P07477)",
    "pIC50": "< 3.70"
  }
]

Would you kindly look at the next entry?
GET /value?item= Cc1nn(-c2ccccc2)c(C)c1NC(=O)COC(=O)Cc1ccco1 &field=pIC50 returns < 3.70

Source of measurements: patent EP3305781A1
